Entries and their MTD
# EXPERIMENTAL DETAILS: maximally tolerated dose in mice, ip qD × 5 regimen
# EXPERIMENTAL SETUP: mouse, in vivo, B6D2F female mice
Report only the number, with the unit mg/kg understood.

Would you please look over these solved cases?
Quick check: MTD of c1csc(P(CCP(c2cccs2)c2cccs2)c2cccs2)c1 ? 16

Could you do the same for c1cc(P(CCP(c2ccncc2)c2ccncc2)c2ccncc2)ccn1 , please? 32

Could you do the same for c1coc(P(CCP(c2ccco2)c2ccco2)c2ccco2)c1 , please? 64

For the next question, use this compound.
Quick check: MTD of c1ccc(P(CCP(c2ccccn2)c2ccccn2)c2ccccn2)nc1 ? 16
